system: mice; experiment: Toxicity observation on successive administration to mice for 15 days; type: in vivo; conditions: 100 mg/kg and 200 mg/kg successively for 15 days

smilesRepr	condition of the mice
N#Cc1ccc(S(=O)(=O)Nc2cccc3c(Cl)c[nH]c23)cc1	quite normal condition
N#Cc1c[nH]c2c(NS(=O)(=O)c3cccc(Cl)c3)cccc12	quite normal condition
N#Cc1cccc(S(=O)(=O)Nc2cccc3c(C#N)c[nH]c23)c1	quite normal condition
Cc1ccc(NS(=O)(=O)c2cccc(C#N)c2)c2[nH]cc(C#N)c12	quite normal condition
